- Organism: Rattus norvegicus
- method-notes: Open TG-GATES - Regimen: Single
- Format: toxicity, organism-based, Sprague-Dawley
- Parameters: regimen Single, gender Male, age 6 weeks
- run-conditions: in vivo, po, 0 mg/kg, 3 h, tissue Plasma, route gavage, dose level Control
This section presents molecules with their documented TP values.
Kindly answer with a numeric value in g/dL, unit omitted.

Example molecules with recorded TP:
                                   molecule  experimental_endpoint  measure_unit  test_value
0  O=C(O)COc1nn(Cc2ccccc2)c2ccccc12 [BENDAZAC]                     TP          g/dL         5.4
1  CC(=O)Nc1ccc2c(c1)Cc1ccccc1-2 [2-ACETYLAMINOFLUORENE]                     TP          g/dL         5.5
2  CC(C)Cc1ccc(C(C)C(=O)O)cc1 (configuration not stated) [IBUPROFEN]                     TP          g/dL         5.4
3  CC(CCc1ccccc1)NCC(O)c1ccc(O)c(C(N)=O)c1 (configuration not stated) [LABETALOL]                     TP          g/dL         5.5
4  CC(=O)N1CCN(c2ccc(OCC3COC(Cn4ccnc4)(c4ccc(Cl)cc4Cl)O3)cc2)CC1 (configuration not stated) [KETOCONAZOLE]                     TP          g/dL         5.4

Reported TP, molecule CCN(CC)N=O [N-NITROSODIETHYLAMINE] : ____
5.5

Reported TP, molecule CC[C@@H](CO)NCCN[C@@H](CC)CO [ETHAMBUTOL] : ____
5.3

----------
This section presents molecules with their documented Ca values.
- Organism: Rattus norvegicus
- method-notes: Open TG-GATES - Regimen: Single
- Type: toxicity, organism-based, Sprague-Dawley
- Design: regimen Single, gender Male, age 6 weeks
- run-conditions: in vivo, po, 0 mg/kg, 3 h, tissue Plasma, route gavage, dose level Control
I'd appreciate it if you wrote the number followed by its unit.

Example molecules with recorded Ca:
                                   molecule  experimental_endpoint  test_value
0        CCN(CC)N=O [N-NITROSODIETHYLAMINE]                     Ca  10.3 mg/dL
1  CC[C@@H](CO)NCCN[C@@H](CC)CO [ETHAMBUTOL]                     Ca  10.4 mg/dL
2  O=C(O)COc1nn(Cc2ccccc2)c2ccccc12 [BENDAZAC]                     Ca  10.9 mg/dL
3  CC(=O)N1CCN(c2ccc(OCC3COC(Cn4ccnc4)(c4ccc(Cl)cc4Cl)O3)cc2)CC1 (stereo not given) [KETOCONAZOLE]                     Ca    11 mg/dL

# context switch: different molecule, same Ca
Reported Ca, molecule CC(=O)Nc1ccc2c(c1)Cc1ccccc1-2 [2-ACETYLAMINOFLUORENE] : ____
10.5 mg/dL

----------
- Species on record: Rattus norvegicus
- method-notes: Open TG-GATES - Regimen: Single
- Type: toxicity, organism-based, Sprague-Dawley
- Parameters: regimen Single, gender Male, age 6 weeks
- run-conditions: in vivo, po, 0 mg/kg, 9 h, tissue Blood, route gavage, dose level Control
experimental-endpoint: Fbg (mg/dL)
Kindly answer with a numeric value in mg/dL, unit omitted.

Example compounds with recorded Fbg:
>>> print(df.to_string())
                                   compound  experimental_endpoint  measure_unit  test_value
0  CC(=O)Nc1ccc2c(c1)Cc1ccccc1-2 [2-ACETYLAMINOFLUORENE]                    Fbg         mg/dL       241.4
1  CC(=O)N1CCN(c2ccc(OCC3COC(Cn4ccnc4)(c4ccc(Cl)cc4Cl)O3)cc2)CC1 (configuration not stated) [KETOCONAZOLE]                    Fbg         mg/dL       294.4
2  O=C(O)COc1nn(Cc2ccccc2)c2ccccc12 [BENDAZAC]                    Fbg         mg/dL       206.4
3  CC(C)Cc1ccc(C(C)C(=O)O)cc1 (configuration not stated) [IBUPROFEN]                    Fbg         mg/dL         287
4        CCN(CC)N=O [N-NITROSODIETHYLAMINE]                    Fbg         mg/dL       230.8
5  CC[C@@H](CO)NCCN[C@@H](CC)CO [ETHAMBUTOL]                    Fbg         mg/dL         288

# context switch: different compound, same Fbg
Reported Fbg, compound CC(CCc1ccccc1)NCC(O)c1ccc(O)c(C(N)=O)c1 (configuration not stated) [LABETALOL] : ____
288

----------
- Organism: Rattus norvegicus
- method-notes: Open TG-GATES - Regimen: Daily Repeat
- Type: toxicity, organism-based, Sprague-Dawley
- Set-up: regimen Daily Repeat, gender Male, age 6 weeks
- run-conditions: in vivo, po, 0 mg/kg, […], tissue Plasma, route gavage, dose level Control, time 7 day
experimental-endpoint: K (meq/L)
Kindly answer with a numeric value in meq/L, unit omitted.

Example molecules with recorded K:
                           molecule  test_value
0               CC(N)=O [ACETAMIDE]         4.7
1  O=C(O)COc1nn(Cc2ccccc2)c2ccccc12         4.8
2     CC(=O)Nc1ccc2c(c1)Cc1ccccc1-2         4.1
3      CC[C@@H](CO)NCCN[C@@H](CC)CO         4.1
4                        CCN(CC)N=O         4.1

Reported K, molecule CC(C)Cc1ccc(C(C)C(=O)O)cc1 (configuration not stated) : ____
4.2

Reported K, molecule CC(CCc1ccccc1)NCC(O)c1ccc(O)c(C(N)=O)c1 (configuration not stated) : ____
3.8

----------
This section presents compounds with their documented Plat values.
- Species: Rattus norvegicus
- method-notes: Open TG-GATES - Regimen: Daily Repeat
- Format: toxicity, organism-based, Sprague-Dawley
- Design: regimen Daily Repeat, gender Male, age 6 weeks
- run-conditions: in vivo, po, 0 mg/kg, […], tissue Blood, route gavage, dose level Control, time 28 day
I'd appreciate it if you wrote the number followed by its unit.

Reported Plat, compound O=C(O)COc1nn(Cc2ccccc2)c2ccccc12 [BENDAZAC] : ____
115.9 x10_4/uL

Reported Plat, compound CCN(CC)N=O [N-NITROSODIETHYLAMINE] : ____
108.6 x10_4/uL

Reported Plat, compound CC(=O)N1CCN(c2ccc(OCC3COC(Cn4ccnc4)(c4ccc(Cl)cc4Cl)O3)cc2)CC1 (configuration not stated) [KETOCONAZOLE] : ____
107.7 x10_4/uL

Reported Plat, compound CC(=O)Nc1ccc2c(c1)Cc1ccccc1-2 [2-ACETYLAMINOFLUORENE] : ____
104.4 x10_4/uL

Reported Plat, compound CC[C@@H](CO)NCCN[C@@H](CC)CO [ETHAMBUTOL] : ____
106 x10_4/uL

Reported Plat, compound CC(CCc1ccccc1)NCC(O)c1ccc(O)c(C(N)=O)c1 (configuration not stated) [LABETALOL] : ____
98.3 x10_4/uL

Reported Plat, compound CC(N)=O [ACETAMIDE] : ____
99.3 x10_4/uL

----------
- Species on record: Rattus norvegicus
- method-notes: Open TG-GATES - Regimen: Daily Repeat
- Type: toxicity, organism-based, Sprague-Dawley
- Parameters: regimen Daily Repeat, gender Male, age 6 weeks
- run-conditions: in vivo, po, 0 mg/kg, 72 h, tissue Plasma, route gavage, dose level Control, time 3 day
experimental-endpoint: LDH (IU/L)
Kindly answer with a numeric value in IU/L, unit omitted.

Example compounds with recorded LDH:
                                   compound  experimental_endpoint  test_value
0  CC(C)Cc1ccc(C(C)C(=O)O)cc1 (stereo not drawn) [IBUPROFEN]                    LDH         208
1                       CC(N)=O [ACETAMIDE]                    LDH       180.4
2  CC(=O)Nc1ccc2c(c1)Cc1ccccc1-2 [2-ACETYLAMINOFLUORENE]                    LDH       217.2
3        CCN(CC)N=O [N-NITROSODIETHYLAMINE]                    LDH       211.2
4  O=C(O)COc1nn(Cc2ccccc2)c2ccccc12 [BENDAZAC]                    LDH       101.4

Reported LDH, compound CC(=O)N1CCN(c2ccc(OCC3COC(Cn4ccnc4)(c4ccc(Cl)cc4Cl)O3)cc2)CC1 (stereo not drawn) [KETOCONAZOLE] : ____
222.4

Reported LDH, compound CC[C@@H](CO)NCCN[C@@H](CC)CO [ETHAMBUTOL] : ____
172.4

Reported LDH, compound CC(CCc1ccccc1)NCC(O)c1ccc(O)c(C(N)=O)c1 (stereo not drawn) [LABETALOL] : ____
60.6
